experiment: Cytotoxicity against human U87MG cells after 72 hrs by SRB assay; format: functional, cell-based, U-87MG ATCC; conditions: U-87 MG
Reported IC50 is given for each of the following compounds.
Give just the numeric value; µM need not be written.

Answered examples (3):
O=C(N/N=C/c1c(O)ccc2ccccc12)c1cc(-c2ccc3ccccc3c2)n[nH]1	1
Oc1ccc(Nc2nc(-c3ccc(Cl)cc3)cs2)cc1	10.7
CC(=O)Oc1ccccc1C(=O)Oc1ccc2ccccc2c1/C=N/NC(=O)c1cc(-c2ccc3ccccc3c2)n[nH]1	1.5

Consider now this further compound.
[in] Could you share which IC50 value was measured for `CC(=O)Oc1ccccc1C(=O)Oc1ccc(Nc2nc(-c3ccc(Cl)cc3)cs2)cc1` ?
[out] 8.1

---

Reported pIC50 is given for each of the following molecules.
tested on: MDA-MB-231; experiment: Cytotoxicity against human MDA-MB-231 cells after 72 hrs by SRB assay; type: functional, cell-based; settings: MDA-MB-231, 72 h
Convention used: pIC50 is expressed as -log10 of the molar concentration.

[in] Could you share which pIC50 value was measured for `O=C(N/N=C/c1c(O)ccc2ccccc12)c1cc(-c2ccc3ccccc3c2)n[nH]1` ?
[out] 5.36

[in] Could you share which pIC50 value was measured for `CC(=O)Oc1ccccc1C(=O)Oc1ccc2ccccc2c1/C=N/NC(=O)c1cc(-c2ccc3ccccc3c2)n[nH]1` ?
[out] 5.89

[in] Could you share which pIC50 value was measured for `Oc1ccc(Nc2nc(-c3ccc(Cl)cc3)cs2)cc1` ?
[out] 5.09

[in] Could you share which pIC50 value was measured for `CC(=O)Oc1ccccc1C(=O)Oc1ccc(Nc2nc(-c3ccc(Cl)cc3)cs2)cc1` ?
[out] 5.08

---

assay: Half life in C3H-HEJ mouse serum at 60 mg/kg, ip up to 16 hrs by HPLC analysis; assay type: ADME, organism-based; design: dose 60 mg/kg, route intraperitoneal
Reported half-life is given for each of the following compounds.

CC(=O)Oc1ccccc1C(=O)Oc1ccc2ccccc2c1/C=N/NC(=O)c1cc(-c2ccc3ccccc3c2)n[nH]1	10 h

Consider now this further compound.
[in] Could you share which half-life value was measured for `O=C(N/N=C/c1c(O)ccc2ccccc12)c1cc(-c2ccc3ccccc3c2)n[nH]1` ?
[out] 7 h

---

experiment: Metabolic stability of the compound in fetal bovine serum assessed as compound remaining after 72 hrs by HPLC analysis; format: ADME, cell-free, Bos taurus; conditions: cattle, read-out: Stability
PARAMETER MEASURED: remaining at 72 h

[in] Could you share which remaining at 72 h value was measured for `CC(=O)Oc1ccccc1C(=O)Oc1ccc(Nc2nc(-c3ccc(Cl)cc3)cs2)cc1` ?
[out] 25%

Value source: ChEMBL document CHEMBL1240447
